systemName: human GABAA α1β2γ1 receptor (Homo sapiens (Human), UniProt P14867+Q8N1C3)
assayProtocol: Radioligand binding assay, competition for [3H]RO7239181, γ1-containing GABAA subtypes
assaySetup: Table 1; [3H]RO7239181 displacement, membranes from HEK293F cells, mean of two determinations
Assign pKi to each entry below.
Note on pKi: it is the negative log10 of concentration, concentration in mol/L.

API: value(readout=pKi, system=human GABAA α1β2γ1 receptor (Homo sapiens (Human), UniProt P14867+Q8N1C3)) for record Cc1nnc2n1-c1cnc(C(F)(F)F)c(Cl)c1C(c1c(F)cccc1F)=N[C@H]2C
7.29

API: value(readout=pKi, system=human GABAA α1β2γ1 receptor (Homo sapiens (Human), UniProt P14867+Q8N1C3)) for record COC1CN(C(=O)c2nc3n(n2)-c2cnc(C(F)(F)F)c(Cl)c2C(c2c(F)cccc2F)=N[C@H]3C)C1
7.34

API: value(readout=pKi, system=human GABAA α1β2γ1 receptor (Homo sapiens (Human), UniProt P14867+Q8N1C3)) for record Cc1nnc2n1-c1cnc(C(F)(F)F)c(Cl)c1C(c1c(F)cccc1Cl)=N[C@H]2C
7.46

API: value(readout=pKi, system=human GABAA α1β2γ1 receptor (Homo sapiens (Human), UniProt P14867+Q8N1C3)) for record C[C@@H]1N=C(c2c(F)cccc2F)c2c(cnc(C(F)(F)F)c2Cl)-n2nc(C(=O)N3CC(O)C3)nc21
7.31

====

systemName: human GABAA α2β2γ1 receptor (Homo sapiens (Human), UniProt P47869+Q8N1C3)
assayProtocol: Radioligand binding assay, competition for [3H]RO7239181, γ1-containing GABAA subtypes
assaySetup: Ki h-GABAA α2β2γ1, Table 2; [3H]RO7239181 displacement
Response field label: string, one of yes (1) (Ki strictly below 40 nM) or no (0).

I wonder whether C[C@@H]1N=C(c2c(F)cccc2F)c2c(cnc(C(F)(F)F)c2Cl)-n2nc(NC(=O)C3COC3)nc21 [Example 12] has Ki below 40 nM. Can you tell?
no (0)

I wonder whether Cc1nnc2n1-c1cnc(Cl)c(Cl)c1C(c1c(F)cccc1F)=N[C@H]2C [Example 1] has Ki below 40 nM. Can you tell?
yes (1)

I wonder whether C[C@@H]1N=C(c2c(F)cccc2F)c2c(cnc(C(F)(F)F)c2Cl)-n2c1nc1c2CCC1 [Example 20] has Ki below 40 nM. Can you tell?
yes (1)

I wonder whether C[C@@H]1N=C(c2c(F)cccc2F)c2c(cnc(C(F)(F)F)c2Cl)-n2nc(C(=O)N[C@H]3C[C@H](O)C3)nc21 [Example 24] has Ki below 40 nM. Can you tell?
no (0)

I wonder whether COC1CN(C(=O)c2nc3n(n2)-c2cnc(C(F)(F)F)c(Cl)c2C(c2c(F)cccc2F)=N[C@H]3C)C1 [Example 9] has Ki below 40 nM. Can you tell?
yes (1)

I wonder whether C[C@@H]1N=C(c2c(F)cccc2F)c2c(cnc(C(F)(F)F)c2Cl)-n2nc(C(=O)NC[C@@H](C)O)nc21 [Example 16] has Ki below 40 nM. Can you tell?
yes (1)

====

systemName: human GABAA α1β3γ2 receptor (Homo sapiens (Human), UniProt P14867+P18507)
assayProtocol: Radioligand binding assay, competition for [3H]Flumazenil, γ2-containing GABAA subtypes
assaySetup: Table 1; [3H]Flumazenil displacement, HEK293F cells, mean of two determinations; read-out: Ki h-GABAA α1β3γ2
pKi: −log10 of the molar value.
Given measured pKi, output Criterion met if it is greater than or equal to 5 and Criterion not met if not.

Reported pKi at or above 5? C[C@@H]1N=C(c2c(F)cccc2F)c2c(cnc(C(F)(F)F)c2Cl)-n2nc(C(=O)N[C@H]3C[C@@H](O)C3)nc21
Criterion not met

Reported pKi at or above 5? C[C@@H]1N=C(c2c(F)cccc2F)c2c(cnc(C(F)(F)F)c2Cl)-n2c1nc1c2CCC1
Criterion met

Reported pKi at or above 5? C[C@@H]1N=C(c2c(F)cccc2F)c2c(cnc(C(F)(F)F)c2Cl)-n2nc(C(=O)N3CC(F)C3)nc21
Criterion met

Reported pKi at or above 5? COC1CN(C(=O)c2nc3n(n2)-c2cnc(C(F)(F)F)c(Cl)c2C(c2c(F)cccc2F)=N[C@H]3C)C1
Criterion met

Reported pKi at or above 5? C[C@@H]1N=C(c2c(F)cccc2F)c2c(cnc(C(F)(F)F)c2Cl)-n2nc(C(=O)N3CC(O)C3)nc21
Criterion met

Reported pKi at or above 5? Cc1cn2c(n1)[C@H](C)N=C(c1c(F)cccc1F)c1c-2cnc(C(F)(F)F)c1Cl
Criterion met

====

systemName: human GABAA α1β3γ2 receptor (Homo sapiens (Human), UniProt P14867+P18507)
assayProtocol: Radioligand binding assay, competition for [3H]Flumazenil, γ2-containing GABAA subtypes
reportedProperty: pKi
Note on pKi: it is the negative log10 of concentration, concentration in mol/L.

Look up pKi: CN1C(=O)CN=C(c2ccccc2F)c2ccncc21 [RE-A, reference compound]
6.75

====

Assign pKi to each entry below.
systemName: human GABAA α1β3γ2 receptor (Homo sapiens (Human), UniProt P14867+P18507)
assayProtocol: Radioligand binding assay, competition for [3H]Flumazenil, γ2-containing GABAA subtypes
assaySetup: Table 1; [3H]Flumazenil displacement, HEK293F cells, mean of two determinations; read-out: Ki h-GABAA α1β3γ2
Note on pKi: it is the negative log10 of concentration, concentration in mol/L.

Look up pKi: C[C@@H]1N=C(c2c(F)cccc2F)c2c(cnc(C(F)(F)F)c2Cl)-n2nc(C(=O)N3CCC3)nc21 [Example 6]
4.99

Look up pKi: C[C@@H]1N=C(c2c(F)cccc2F)c2c(cnc(C(F)(F)F)c2Cl)-n2nc(N3CCCC3=O)nc21 [Example 13]
5.28

Look up pKi: Cc1nc2n(n1)-c1cnc(C(F)(F)F)c(Cl)c1C(c1c(F)cccc1F)=N[C@H]2C [Example 5]
5.32

Look up pKi: C[C@H](O)CNC(=O)c1nc2n(n1)-c1cnc(C(F)(F)F)c(Cl)c1C(c1c(F)cccc1F)=N[C@H]2C [Example 14]
5.06

====

systemName: human GABAA α2β2γ1 receptor (Homo sapiens (Human), UniProt P47869+Q8N1C3)
assayProtocol: Radioligand binding assay, competition for [3H]RO7239181, γ1-containing GABAA subtypes
Assign pKi to each entry below.
Note on pKi: it is the negative log10 of concentration, concentration in mol/L.

Look up pKi: Cc1cn2c(n1)[C@H](C)N=C(c1c(F)cccc1F)c1c-2cnc(C(F)(F)F)c1Cl
6.88

Look up pKi: Cc1nnc2n1-c1cnc(C3CC3)c(Cl)c1C(c1c(F)cccc1F)=N[C@H]2C
6.85

====

systemName: human GABAA α2β2γ1 receptor (Homo sapiens (Human), UniProt P47869+Q8N1C3)
assayProtocol: Radioligand binding assay, competition for [3H]RO7239181, γ1-containing GABAA subtypes
assaySetup: Table 1; Ki α1β3γ2 (nM)/Ki α2β2γ1 (nM)
Given measured γ2/γ1 Selectivity Ratio, output 1.0 if it is greater than or equal to 200 and 0.0 if not.

Reported γ2/γ1 Selectivity Ratio at or above 200? C[C@@H]1N=C(c2c(F)cccc2F)c2c(cnc(C(F)(F)F)c2Cl)-n2nc(C(=O)N[C@H]3C[C@H](O)C3)nc21
0.0

Reported γ2/γ1 Selectivity Ratio at or above 200? C[C@@H]1N=C(c2c(F)cccc2F)c2c(cnc(C(F)(F)F)c2Cl)-n2c1nc1c2CCC1
0.0

Reported γ2/γ1 Selectivity Ratio at or above 200? Cc1nnc2n1-c1cnc(C(F)(F)F)c(Cl)c1C(c1c(F)cccc1Cl)=N[C@H]2C
1.0

Reported γ2/γ1 Selectivity Ratio at or above 200? C[C@@H]1N=C(c2c(F)cccc2F)c2c(cnc(C(F)(F)F)c2Cl)-n2nc(C(=O)NCC3(O)CC3)nc21
1.0

Reported γ2/γ1 Selectivity Ratio at or above 200? Cc1nc2n(n1)-c1cnc(C(F)(F)F)c(Cl)c1C(c1c(F)cccc1F)=N[C@H]2C
0.0

Reported γ2/γ1 Selectivity Ratio at or above 200? C[C@@H]1N=C(c2c(F)cccc2F)c2c(cnc(C(F)(F)F)c2Cl)-n2cc(C(=O)NCCO)nc21
1.0

Reported γ2/γ1 Selectivity Ratio at or above 200? C[C@@H]1N=C(c2c(F)cccc2F)c2c(cnc(C(F)(F)F)c2Cl)-n2nc(C(=O)NCC(C)(C)O)nc21
0.0

Reported γ2/γ1 Selectivity Ratio at or above 200? C[C@@H]1N=C(c2c(F)cccc2F)c2c(cnc(C(F)(F)F)c2Cl)-n2nc(C(=O)N3CC(F)C3)nc21
1.0

Reported γ2/γ1 Selectivity Ratio at or above 200? Cc1nnc2n1-c1cnc(C3CC3)c(Cl)c1C(c1c(F)cccc1F)=N[C@H]2C
0.0
